- test.details: self-splicing fitness, log relative to wild type (ln ratio); higher = more splicing; Tetrahymena group I intron in knt gene, E. coli kanamycin selection, DiMSum; sequences stand for … in CUCUCU…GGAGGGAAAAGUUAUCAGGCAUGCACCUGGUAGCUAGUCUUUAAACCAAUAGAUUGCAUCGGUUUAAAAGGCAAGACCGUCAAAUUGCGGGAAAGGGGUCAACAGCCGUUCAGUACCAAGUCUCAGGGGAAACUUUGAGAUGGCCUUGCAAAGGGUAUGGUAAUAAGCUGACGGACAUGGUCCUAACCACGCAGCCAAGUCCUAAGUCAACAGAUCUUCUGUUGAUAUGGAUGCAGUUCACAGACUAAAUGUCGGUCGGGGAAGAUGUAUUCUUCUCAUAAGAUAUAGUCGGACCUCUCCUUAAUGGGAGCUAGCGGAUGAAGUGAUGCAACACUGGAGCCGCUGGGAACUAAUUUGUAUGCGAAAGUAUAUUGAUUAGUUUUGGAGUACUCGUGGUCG;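 also: selection with 25 µg/mL kanamycin versus none on LB agar overnight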
- condition.details: 37 °C
Values of self-splicing fitness (ln) greater than or equal to -2 map to Y; values below map to N.

query: Does AACAAGCAAUAUUACGCUAU have a reported self-splicing fitness (ln) of at least -2?
result: Y

query: Does GGAAAGCAAUAUUACGAGAU have a reported self-splicing fitness (ln) of at least -2?
result: N

query: Does GGCAAGCAAUAUUACGUUCC have a reported self-splicing fitness (ln) of at least -2?
result: Y

query: Does CGCCAGCAAUAUUACGCCAC have a reported self-splicing fitness (ln) of at least -2?
result: Y

query: Does UAACAGCAAUAUUACGAUUA have a reported self-splicing fitness (ln) of at least -2?
result: Y

query: Does GUACAGCAAUAUUACGACAG have a reported self-splicing fitness (ln) of at least -2?
result: Y

query: Does UUACAGCAAUAUUACGGUAU have a reported self-splicing fitness (ln) of at least -2?
result: Y

query: Does CUACAGCAAUAUUACGAAAU have a reported self-splicing fitness (ln) of at least -2?
result: N

query: Does UGUAAGCAAUAUUACGGACG have a reported self-splicing fitness (ln) of at least -2?
result: Y

query: Does GGGAAGCAAUAUUACGAAGA have a reported self-splicing fitness (ln) of at least -2?
result: Y

query: Does GGGCAGCAAUAUUACGGGUG have a reported self-splicing fitness (ln) of at least -2?
result: Y

query: Does GGGUAGCAAUAUUACGUGUU have a reported self-splicing fitness (ln) of at least -2?
result: Y

query: Does AAUGAGCAAUAUUACGUGAG have a reported self-splicing fitness (ln) of at least -2?
result: Y

query: Does UUAAAGCAAUAUUACGGAAU have a reported self-splicing fitness (ln) of at least -2?
result: Y

query: Does CACGAGCAAUAUUACGUCGA have a reported self-splicing fitness (ln) of at least -2?
result: N

query: Does GAAGAGCAAUAUUACGUUAU have a reported self-splicing fitness (ln) of at least -2?
result: Y

query: Does CAAUAGCAAUAUUACGAGUU have a reported self-splicing fitness (ln) of at least -2?
result: N

query: Does UGACAGCAAUAUUACGACCC have a reported self-splicing fitness (ln) of at least -2?
result: Y

query: Does AAUUAGCAAUAUUACGCGGC have a reported self-splicing fitness (ln) of at least -2?
result: Y

query: Does GUACAGCAAUAUUACGUUGC have a reported self-splicing fitness (ln) of at least -2?
result: N

Data origin: the supplement of paper PMC7877785
